B1: ZNF8 (parent)
chain: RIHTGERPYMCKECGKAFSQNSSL

Variants of: B1
Experiment: protein stability index of a GFP-peptide fusion (GPS, HEK-293T) (PSI 1-6); higher = more stable;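 also: lentivirally expressed fusions sorted by FACS into six bins by GFP to DsRed ratio, PSI derived from sequencing read proportions per bin multiplied by bin number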
Details: c terminus: a fixed tail appended
Experimental Readout: protein stability index
No unit in the answer, only the number.

Input: Find the recorded protein stability index belonging to F18T and report it.
Output: 2.85

Input: Same for S22Y
Output: 1.8

Input: // next record R1V
Output: 2.88

Input: And then T4F , what is it?
Output: 2.42

Input: // same read-out, input: Y9Q
Output: 2.75

Input: What about S22D ?
Output: 2.4

Input: Another variant to check: H3S
Output: 2.38

Input: And then Y9A , what is it?
Output: 3.88

Input: Repeat with S22A
Output: 2.49

Input: Then this variant: Q20W
Output: 2.5

Input: Another variant to look at: Q20I
Output: 2.4

Input: And E13C ?
Output: 1.85

Input: What do we get for K16F ?
Output: 2.52

Input: What do you get for R1A ?
Output: 2.93

Input: Consider next the variant P8W in the same way.
Output: 2.19

Input: Then this variant: Y9H
Output: 2.86

Input: # repeat for N21V
Output: 1.4

Input: Next record, please: N21R
Output: 2.26

Input: Request: G15L
Output: 3.05

Input: And then T4E , what is it?
Output: 3.16

Input: Cool, now F18H
Output: 3.59

Input: G15M , same question.
Output: 2.67

Input: Entry to check: S23W
Output: 1.94

Input: Next entry: A17P
Output: 2.09

Input: Request: I2N
Output: 3.13

Input: Now try I2C .
Output: 2.85

Input: Now give it for S22W too.
Output: 2.22

Input: Queued: E13T
Output: 1.96

Input: Query R1S next
Output: 3.19

Input: Then this variant: K16P
Output: 2.06

Input: What do you get for C11D ?
Output: 2.78

Input: # iterate: Q20T
Output: 2.61

Input: What would you report for H3N ?
Output: 2.81

Input: # repeat for T4Y
Output: 2.1

Input: Moving on to the next variant: G15I
Output: 1.98

Input: Repeat for the following variant: N21E
Output: 2.65

Input: How about this variant: M10T
Output: 3.03

FYI, the data here is from the supplement of paper PMC10567573.
